Target Of Assay: human HER4 (human, UniProt Q15303 26-1308)
Sequence (Q15303 26-1308 limits assumed): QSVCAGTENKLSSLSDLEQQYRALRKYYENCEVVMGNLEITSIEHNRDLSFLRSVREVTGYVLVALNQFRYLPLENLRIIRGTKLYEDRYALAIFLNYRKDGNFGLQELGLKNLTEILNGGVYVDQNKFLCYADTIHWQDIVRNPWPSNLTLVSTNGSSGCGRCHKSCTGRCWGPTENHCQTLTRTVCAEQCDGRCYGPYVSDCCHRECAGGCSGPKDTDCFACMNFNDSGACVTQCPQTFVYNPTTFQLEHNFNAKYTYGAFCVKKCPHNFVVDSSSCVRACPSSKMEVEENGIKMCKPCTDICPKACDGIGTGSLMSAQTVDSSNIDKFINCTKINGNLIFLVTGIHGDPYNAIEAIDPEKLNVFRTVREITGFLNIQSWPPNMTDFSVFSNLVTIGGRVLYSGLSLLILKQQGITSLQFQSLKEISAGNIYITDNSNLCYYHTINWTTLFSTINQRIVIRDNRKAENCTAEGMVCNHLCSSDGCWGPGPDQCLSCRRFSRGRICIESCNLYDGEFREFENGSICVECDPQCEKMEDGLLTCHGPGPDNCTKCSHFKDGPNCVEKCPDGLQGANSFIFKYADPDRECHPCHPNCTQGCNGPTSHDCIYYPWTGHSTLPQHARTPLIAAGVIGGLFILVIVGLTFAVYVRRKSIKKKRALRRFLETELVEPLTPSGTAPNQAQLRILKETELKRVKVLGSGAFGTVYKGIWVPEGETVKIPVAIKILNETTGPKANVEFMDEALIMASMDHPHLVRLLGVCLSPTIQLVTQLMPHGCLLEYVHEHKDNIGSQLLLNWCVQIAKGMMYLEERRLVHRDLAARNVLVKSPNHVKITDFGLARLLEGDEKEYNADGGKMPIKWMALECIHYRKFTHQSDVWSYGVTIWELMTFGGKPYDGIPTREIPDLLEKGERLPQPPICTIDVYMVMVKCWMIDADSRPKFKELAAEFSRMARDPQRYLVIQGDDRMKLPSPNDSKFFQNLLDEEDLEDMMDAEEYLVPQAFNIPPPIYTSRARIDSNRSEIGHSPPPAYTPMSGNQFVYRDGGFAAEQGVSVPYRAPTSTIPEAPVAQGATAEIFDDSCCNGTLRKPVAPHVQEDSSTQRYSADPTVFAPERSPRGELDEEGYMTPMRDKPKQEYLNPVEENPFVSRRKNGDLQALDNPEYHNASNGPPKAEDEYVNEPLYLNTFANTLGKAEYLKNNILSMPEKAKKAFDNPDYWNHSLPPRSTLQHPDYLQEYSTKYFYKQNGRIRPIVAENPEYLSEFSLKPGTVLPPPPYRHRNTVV
Measurement Description: FACS CHO-HER4, 667 nM
Quantity Kind: MCF
Provide a numeric answer; units are not to be included.

So for 18E08 (VHH) VHH: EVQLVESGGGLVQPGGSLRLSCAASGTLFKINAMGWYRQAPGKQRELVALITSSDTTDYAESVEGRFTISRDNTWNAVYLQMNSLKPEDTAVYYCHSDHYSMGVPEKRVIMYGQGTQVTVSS , the logged MCF turned out to be 80

17E08 (VHH) VHH: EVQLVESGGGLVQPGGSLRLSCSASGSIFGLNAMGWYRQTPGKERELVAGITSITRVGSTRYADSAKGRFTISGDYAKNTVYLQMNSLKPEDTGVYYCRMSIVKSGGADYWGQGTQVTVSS yielded MCF of 117

Documented MCF of 18B05 (VHH) VHH: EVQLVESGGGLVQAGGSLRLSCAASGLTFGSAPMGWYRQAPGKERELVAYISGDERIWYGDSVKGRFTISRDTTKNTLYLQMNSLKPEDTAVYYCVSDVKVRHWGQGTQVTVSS : 95

# binder 18G11 (VHH, c-myc, His6-tagged form as expressed; also called HER3MS18G11; HER3MS018G11) VHH: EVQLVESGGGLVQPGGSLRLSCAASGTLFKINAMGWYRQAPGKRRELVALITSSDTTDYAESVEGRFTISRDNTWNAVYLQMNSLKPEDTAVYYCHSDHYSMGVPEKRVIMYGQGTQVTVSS ; its MCF = 56
